- measured_target: FLuc-C-HiBiT (Photinus pyralis)
- Construct: firefly luciferase with C-terminal HiBiT tag, E. coli expressed
- Sequence (P08659 whole entry, looked up): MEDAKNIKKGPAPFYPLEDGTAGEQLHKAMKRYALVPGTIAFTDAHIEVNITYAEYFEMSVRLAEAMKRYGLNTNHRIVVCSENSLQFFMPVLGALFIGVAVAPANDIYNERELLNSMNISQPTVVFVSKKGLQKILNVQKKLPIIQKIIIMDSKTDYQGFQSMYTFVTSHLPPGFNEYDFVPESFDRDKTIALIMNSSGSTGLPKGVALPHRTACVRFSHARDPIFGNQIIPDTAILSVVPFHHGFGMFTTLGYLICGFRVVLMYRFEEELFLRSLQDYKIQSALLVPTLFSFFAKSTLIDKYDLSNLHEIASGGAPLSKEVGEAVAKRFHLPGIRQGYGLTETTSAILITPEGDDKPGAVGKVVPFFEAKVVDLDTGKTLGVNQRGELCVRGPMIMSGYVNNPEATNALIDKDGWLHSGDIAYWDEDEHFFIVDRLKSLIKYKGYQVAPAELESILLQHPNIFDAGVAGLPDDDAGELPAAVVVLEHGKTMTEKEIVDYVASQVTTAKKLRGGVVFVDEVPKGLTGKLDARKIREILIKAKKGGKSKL
- protocol_summary: biochemical
- condition_summary: enzyme activity, 10 uM ATP; read-out: IC50 or SDR50 (mM) / FLuc E
measurement_kind: IC50 (mM)

molecule | measured_target | value_modifier | assay_result
O=C(Nc1ccccc1C(=O)O)c1cccc([S+](=O)([O-])N2CCCC2)c1 [NCGC00098464-01] | FLuc-C-HiBiT (Photinus pyralis) | = | 0.0124
Nc1ccc2nc(-c3ccc(O)cc3)sc2c1 [NCGC00098122-01] | FLuc-C-HiBiT (Photinus pyralis) | = | 0.000624
Cc1cc(Cl)ccc1-n1ncc2c(N3CCCCC3)ncnc21 [NCGC00651954-01] | FLuc-C-HiBiT (Photinus pyralis) | = | 0.00442
CSCC(=O)Nc1nc2c(s1)C[C@]1(C)CC[C@@H]3[C@H](OC(=O)[C@H]3C)[C@H]1[C@@H]2C [NCGC00401416-01] | FLuc-C-HiBiT (Photinus pyralis) | = | 0.00453
COc1cccc(-n2nnc(-c3nc(-c4ccccc4F)no3)c2C)c1 [NCGC00128608-01] | FLuc-C-HiBiT (Photinus pyralis) | = | 0.00556
CC(C)c1nc2c(c(-c3ccc(O)cc3)n1)CCN(Cc1ccccn1)CC2 [NCGC00480326-01] | FLuc-C-HiBiT (Photinus pyralis) | > | 0.03
CCn1ncc(NC(=O)Cn2ncc3cc(-c4ccc(N(C)C)cc4)ccc32)n1 [NCGC00433406-01] | FLuc-C-HiBiT (Photinus pyralis) | = | 0.000785
CC(C)Cc1noc(-c2ccc(N3CCC(O)CC3)nc2)n1 [NCGC00434953-01] | FLuc-C-HiBiT (Photinus pyralis) | = | 0.00556
